The reported numbers originate from the supplement of paper PMC10567573.

B1: PBXIP1 (parent)
chain: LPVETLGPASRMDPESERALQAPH

# Variants of: B1
# measurement-notes: protein stability index of a GFP-peptide fusion (GPS, HEK-293T) (PSI 1-6); higher = more stable;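 also: lentivirally expressed fusions sorted by FACS into six bins by GFP to DsRed ratio, PSI derived from sequencing read proportions per bin multiplied by bin number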
# condition-parameters: c terminus: a fixed tail appended

mutant-designation: V3F
protein stability index: 4.88
//
mutant-designation: V3I
protein stability index: 4.92
//
mutant-designation: A22T
protein stability index: 4.7
//
mutant-designation: M12G
protein stability index: 4.4
//
mutant-designation: H24G
protein stability index: 4.26
//
mutant-designation: S10Y
protein stability index: 3.85
//
mutant-designation: H24E
protein stability index: 4.36
//
mutant-designation: R11I
protein stability index: 2.99
//
mutant-designation: M12K
protein stability index: 5.34
//
mutant-designation: P23A
protein stability index: 4.09
//
mutant-designation: R11T
protein stability index: 4.2
//
mutant-designation: S10H
protein stability index: 4.2
//
mutant-designation: M12I
protein stability index: 4.5
//
mutant-designation: E4Y
protein stability index: 4.22
//
mutant-designation: P14F
protein stability index: 4.32
//
mutant-designation: L1P
protein stability index: 5.09
//
mutant-designation: L6R
protein stability index: 5.28
//
mutant-designation: P8L
protein stability index: 4.99
//
mutant-designation: A9P
protein stability index: 4.92
//
mutant-designation: H24V
protein stability index: 4.47
//
mutant-designation: A9T
protein stability index: 4.51
//
mutant-designation: P8T
protein stability index: 5.31
